# credit: PubChem BioAssay AID1963840

- Test system: 695427-040-R-J1-PDC complex spheroid viability
- test.protocol: Anticancer human tumor 695427-040-R-J1-PDC patient-derived colon adenocarcinoma cell line growth inhibition [POLQ]
- condition.set: second compound 0.0316 µM; first compound 0.01 µM; hits give low values
parameter.measured: viability, T/C (%)
Write the value in % as a bare number.

Below, each entry is followed by its recorded viability, T/C result.
COc1cccc(OCCCN)c1-c1cc(Nc2cnc(C#N)cn2)n[nH]1 + Nc1ccc(C#CCN(C(=O)Cc2ncc(C(F)(F)F)cc2C(F)(F)F)c2ccc(F)cc2)nn1 : 99.7
CCc1c2c(nc3ccc(O)cc13)-c1cc3c(c(=O)n1C2)COC(=O)[C@]3(O)CC + COC1C(OC(N)=O)C(O)C(Oc2ccc3c(O)c(NC(=O)c4ccc(O)c(CC=C(C)C)c4)c(=O)oc3c2C)OC1(C)C : 89
CCc1c2c(nc3ccc(O)cc13)-c1cc3c(c(=O)n1C2)COC(=O)[C@]3(O)CC + Nc1ccc(C#CCN(C(=O)Cc2ncc(C(F)(F)F)cc2C(F)(F)F)c2ccc(F)cc2)nn1 : 102
C=CCn1c(=O)c2cnc(Nc3ccc(N4CCN(C)CC4)cc3)nc2n1-c1cccc(C(C)(C)O)n1 + COC1C(OC(N)=O)C(O)C(Oc2ccc3c(O)c(NC(=O)c4ccc(O)c(CC=C(C)C)c4)c(=O)oc3c2C)OC1(C)C : 91.8

Quote viability, T/C reported for COc1cccc(OCCCN)c1-c1cc(Nc2cnc(C#N)cn2)n[nH]1 + Cc1cccc(N(C)C(=O)C2C(O)CCN2c2nc(C)cc(C(F)(F)F)c2C#N)c1 please.
107

###

- Tested on: 695427-040-R-J1-PDC complex spheroid viability
- test.protocol: Anticancer human tumor 695427-040-R-J1-PDC cell line growth inhibition [POLQ];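 also: spheroids exposed to compounds for seven days; 100% = DMSO vehicle control viability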
- condition.set: second compound 0.1 µM; first compound 1 µM; hits give low values
Label key: fulfilled means viability, T/C under 90%; not fulfilled means viability, T/C of 90% or more.

CCc1c2c(nc3ccc(O)cc13)-c1cc3c(c(=O)n1C2)COC(=O)[C@]3(O)CC + COC1C(OC(N)=O)C(O)C(Oc2ccc3c(O)c(NC(=O)c4ccc(O)c(CC=C(C)C)c4)c(=O)oc3c2C)OC1(C)C : fulfilled
O=C(Nc1ccc(O)c(NS(=O)(=O)c2ccc(F)cc2)c1)c1ccc(-c2ccccc2)cc1 + Cc1cccc(N(C)C(=O)C2C(O)CCN2c2nc(C)cc(C(F)(F)F)c2C#N)c1 : not fulfilled
O=C(c1cc(Cc2n[nH]c(=O)c3ccccc23)ccc1F)N1CCN(C(=O)C2CC2)CC1 + Cc1cccc(N(C)C(=O)C2C(O)CCN2c2nc(C)cc(C(F)(F)F)c2C#N)c1 : not fulfilled
CC(C)n1c(=O)n(C)c2cnc3cc(F)c(-c4ccc(OCCCN5CCCCC5)nc4)cc3c21 + Cc1cccc(N(C)C(=O)C2C(O)CCN2c2nc(C)cc(C(F)(F)F)c2C#N)c1 : not fulfilled
CNCc1ccc(-c2[nH]c3cc(F)cc4c3c2CCNC4=O)cc1 + COC1C(OC(N)=O)C(O)C(Oc2ccc3c(O)c(NC(=O)c4ccc(O)c(CC=C(C)C)c4)c(=O)oc3c2C)OC1(C)C : not fulfilled
Nc1ccn(C2OC(CO)C(O)C2(F)F)c(=O)n1 (stereo not given) + COC1C(OC(N)=O)C(O)C(Oc2ccc3c(O)c(NC(=O)c4ccc(O)c(CC=C(C)C)c4)c(=O)oc3c2C)OC1(C)C : fulfilled
CC1COCCN1c1cc(C2(S(C)(=N)=O)CC2)nc(-c2ccnc3[nH]ccc23)n1 (stereo not given) + COC1C(OC(N)=O)C(O)C(Oc2ccc3c(O)c(NC(=O)c4ccc(O)c(CC=C(C)C)c4)c(=O)oc3c2C)OC1(C)C : not fulfilled
O=C(Nc1ccc(O)c(NS(=O)(=O)c2ccc(F)cc2)c1)c1ccc(-c2ccccc2)cc1 + COC1C(OC(N)=O)C(O)C(Oc2ccc3c(O)c(NC(=O)c4ccc(O)c(CC=C(C)C)c4)c(=O)oc3c2C)OC1(C)C : not fulfilled

Does this compound meet the criterion viability, T/C < 90%? CC(C)n1c(=O)n(C)c2cnc3cc(F)c(-c4ccc(OCCCN5CCCCC5)nc4)cc3c21 + Nc1ccc(C#CCN(C(=O)Cc2ncc(C(F)(F)F)cc2C(F)(F)F)c2ccc(F)cc2)nn1
not fulfilled

Does this compound meet the criterion viability, T/C < 90%? COc1cccc(OCCCN)c1-c1cc(Nc2cnc(C#N)cn2)n[nH]1 + COC1C(OC(N)=O)C(O)C(Oc2ccc3c(O)c(NC(=O)c4ccc(O)c(CC=C(C)C)c4)c(=O)oc3c2C)OC1(C)C
fulfilled

Does this compound meet the criterion viability, T/C < 90%? CC(C)n1c(=O)n(C)c2cnc3cc(F)c(-c4ccc(OCCCN5CCCCC5)nc4)cc3c21 + COC1C(OC(N)=O)C(O)C(Oc2ccc3c(O)c(NC(=O)c4ccc(O)c(CC=C(C)C)c4)c(=O)oc3c2C)OC1(C)C
not fulfilled

Does this compound meet the criterion viability, T/C < 90%? COc1ccc([C@@H](O)c2cc(-c3ncnc4cc(N5CCOCC5)ccc34)c(F)cc2Cl)nn1 + COC1C(OC(N)=O)C(O)C(Oc2ccc3c(O)c(NC(=O)c4ccc(O)c(CC=C(C)C)c4)c(=O)oc3c2C)OC1(C)C
not fulfilled

Does this compound meet the criterion viability, T/C < 90%? CC1COCCN1c1cc(-c2ccnn2C)c2ccnc(-c3ccn[nH]3)c2n1 (stereo not given) + Cc1cccc(N(C)C(=O)C2C(O)CCN2c2nc(C)cc(C(F)(F)F)c2C#N)c1
fulfilled

Does this compound meet the criterion viability, T/C < 90%? C#Cc1c(F)ccc2cc(O)cc(-c3ncc4c(N5CC6CCC(C5)N6)nc(OCC56CCCN5CC(F)C6)nc4c3F)c12 (stereo not given) + Nc1ccc(C#CCN(C(=O)Cc2ncc(C(F)(F)F)cc2C(F)(F)F)c2ccc(F)cc2)nn1
not fulfilled

Does this compound meet the criterion viability, T/C < 90%? CNCc1ccc(-c2[nH]c3cc(F)cc4c3c2CCNC4=O)cc1 + Cc1cccc(N(C)C(=O)C2C(O)CCN2c2nc(C)cc(C(F)(F)F)c2C#N)c1
not fulfilled

Does this compound meet the criterion viability, T/C < 90%? COc1cc(C2c3cc4c(cc3C(OC3OC5COC(C)OC5C(O)C3O)C3COC(=O)C23)OCO4)cc(OC)c1O (stereo not given) + COC1C(OC(N)=O)C(O)C(Oc2ccc3c(O)c(NC(=O)c4ccc(O)c(CC=C(C)C)c4)c(=O)oc3c2C)OC1(C)C
not fulfilled

Does this compound meet the criterion viability, T/C < 90%? CCCS(=O)(=O)Nc1ccc(F)c(C(=O)c2c[nH]c3ncc(-c4ccc(Cl)cc4)cc23)c1F + COC1C(OC(N)=O)C(O)C(Oc2ccc3c(O)c(NC(=O)c4ccc(O)c(CC=C(C)C)c4)c(=O)oc3c2C)OC1(C)C
not fulfilled

Does this compound meet the criterion viability, T/C < 90%? O=C(c1cc(Cc2n[nH]c(=O)c3ccccc23)ccc1F)N1CCN(C(=O)C2CC2)CC1 + Nc1ccc(C#CCN(C(=O)Cc2ncc(C(F)(F)F)cc2C(F)(F)F)c2ccc(F)cc2)nn1
not fulfilled

Does this compound meet the criterion viability, T/C < 90%? CC1COCCN1c1cc(C2(O)CC3CCC(C2)O3)c2cnn(-c3ccn[nH]3)c2n1 (stereo not given) + Cc1cccc(N(C)C(=O)C2C(O)CCN2c2nc(C)cc(C(F)(F)F)c2C#N)c1
fulfilled
